System: Radical scavenging activity
Experiment: Antioxidant activity assessed as inhibition of DPPH radical after 30 mins by spectrophotometric analysis
Type: functional
READOUT TYPE: pIC50
One number for each entry, as −log10 of the molar value.

For each entry beneath this line, provide reported pIC50.
1. COc1ccc(C2C(C#N)=C(N)Oc3cc(C)oc(=O)c32)cc1 (stereo not given)
2. Cc1cc2c(c(=O)o1)C(c1ccc(Br)cc1)C(C#N)=C(N)O2 (stereo not given)
3. O=C1O[C@H]([C@@H](O)CO)C(O)=C1O [ASCORBIC ACID]

## Output
1: 3.28; 2: 3.29; 3: 3.97

For each entry beneath this line, provide reported pIC50.
1. Cc1cc2c(c(=O)o1)C(c1ccc([N+](=O)[O-])cc1)C(C#N)=C(N)O2 (stereo not given)
2. Cc1cc2c(c(=O)o1)C(c1cccs1)C(C#N)=C(N)O2 (stereo not given)

## Output
[3.09, 3.13]

* * *

Tested on: MCF7
Test: Cytotoxicity against human MCF7 cells after 96 hrs by MTT assay
Format: functional, cell-based
Conditions: MCF7, 96 h
READOUT TYPE: IC50
Dear colleague, please send the value followed by its unit.

Below, 6 compounds whose answers are already recorded.
Cc1cc2c(c(=O)o1)C(c1ccco1)C(C#N)=C(N)O2 (stereo not drawn) : 27 µM
Cc1cc2c(c(=O)o1)C(c1ccccc1)C(C#N)=C(N)O2 (stereo not drawn) : 46 µM
Cc1cc2c(c(=O)o1)C(c1cccs1)C(C#N)=C(N)O2 (stereo not drawn) : 15 µM
COc1ccc(C2C(C#N)=C(N)Oc3cc(C)oc(=O)c32)cc1 (stereo not drawn) : 57 µM
Cc1cc2c(c(=O)o1)C(c1ccc(Br)cc1)C(C#N)=C(N)O2 (stereo not drawn) : 35 µM
Cc1cc2c(c(=O)o1)C(c1ccc([N+](=O)[O-])cc1)C(C#N)=C(N)O2 (stereo not drawn) : 42 µM

For each entry beneath this line, provide reported IC50.
1. Cc1cc2c(c(=O)o1)C(c1c[nH]c3ccc(Br)cc13)C(C#N)=C(N)O2 (stereo not drawn)
2. Cc1cc2c(c(=O)o1)C(c1ccc(Cl)cc1)C(C#N)=C(N)O2 (stereo not drawn)
3. Cc1cc2c(c(=O)o1)C(c1ccc(C)s1)C(C#N)=C(N)O2 (stereo not drawn)
4. Cc1cc2c(c(=O)o1)C(c1c[nH]c3ccc(C#N)cc13)C(C#N)=C(N)O2 (stereo not drawn)
5. Cc1cc2c(c(=O)o1)C(c1c[nH]c3ccccc13)C(C#N)=C(N)O2 (stereo not drawn)

## Output
1. 5 µM
2. 32 µM
3. 22 µM
4. 7 µM
5. 10 µM

For each entry beneath this line, provide reported IC50.
1. Cc1cc2c(c(=O)o1)C(c1ccc(Cl)s1)C(C#N)=C(N)O2 (stereo not drawn)
2. Cc1ccc(C2C(C#N)=C(N)Oc3cc(C)oc(=O)c32)cc1 (stereo not drawn)

## Output
1: 12 µM; 2: 54 µM

* * *

System: Radical scavenging activity
Experiment: Antioxidant activity assessed as inhibition of DPPH radical after 30 mins by spectrophotometric analysis
Assay type: functional
Decide using IC50 alone. Strictly below 400 µM: Criterion met. Equal to or above 400 µM: Criterion not met.

The examples below pair each entry with its known result.
Cc1ccc(C2C(C#N)=C(N)Oc3cc(C)oc(=O)c32)cc1 (centres undefined) : Criterion not met
Cc1cc2c(c(=O)o1)C(c1c[nH]c3ccc(C#N)cc13)C(C#N)=C(N)O2 (centres undefined) : Criterion not met
Cc1cc2c(c(=O)o1)C(c1ccco1)C(C#N)=C(N)O2 (centres undefined) : Criterion met

## Input Quick check: IC50 of Cc1cc2c(c(=O)o1)C(c1ccccc1)C(C#N)=C(N)O2 (centres undefined) under 400 µM?
## Output Criterion not met

## Input Quick check: IC50 of Cc1cc2c(c(=O)o1)C(c1ccc(Cl)s1)C(C#N)=C(N)O2 (centres undefined) under 400 µM?
## Output Criterion not met

## Input Quick check: IC50 of Cc1cc2c(c(=O)o1)C(c1ccc(C)s1)C(C#N)=C(N)O2 (centres undefined) under 400 µM?
## Output Criterion not met

## Input Quick check: IC50 of Cc1cc2c(c(=O)o1)C(c1c[nH]c3ccccc13)C(C#N)=C(N)O2 (centres undefined) under 400 µM?
## Output Criterion met

## Input Quick check: IC50 of Cc1cc2c(c(=O)o1)C(c1c[nH]c3ccc(Br)cc13)C(C#N)=C(N)O2 (centres undefined) under 400 µM?
## Output Criterion not met

## Input Quick check: IC50 of Cc1cc2c(c(=O)o1)C(c1ccc(Cl)cc1)C(C#N)=C(N)O2 (centres undefined) under 400 µM?
## Output Criterion not met
